Tested on: OVCAR-3 ovarian
Test: NCI-60 one-dose screen, 48 h
Conditions: 10 µM unless noted
About 83,000 compounds went through this panel and 20% of them were active in at least one assay; those are over-represented in the sample as a whole. Active and inactive are the calls of the source. The calls were made as follows: active = growth percent below 10; inactive = the rest.
Return exactly one item of YES = active, NO = inactive

Please indicate how the test categorized CCCCCCCC(=O)SCC/C=C/[C@@H]1CC(=O)NCc2cc(ccn2)C2=N[C@@](C)(CS2)C(=O)N[C@@H](C(C)C)C(=O)O1 . YES

From here, focus on the item given below.
Dear colleague, could you share the recorded outcome for CC[C@H](Nc1ncnc2nc[nH]c12)c1nc2cccc(F)c2c(=O)n1-c1ccccc1 when you have a moment? NO

* * *

Test system: SNB-19 CNS
Experiment: NCI-60 one-dose screen, 48 h
Conditions: 10 µM unless noted
The panel holds about 83,000 compounds, 20% with a hit somewhere; the sample as a whole holds those more often. Calls of active or inactive are those of the source. How the source made its calls: active means growth percent below 10; inactive means the rest.
Outcomes you can answer with include only these: active, inactive

Examples from the recorded data:
Which outcome was entered for the compound Cn1cnc(-c2cc3nccc(Oc4ccc(NC(=S)NC(=O)Cc5ccccc5)cc4F)c3s2)c1 in this test? inactive

GET /call?item= Cn1ncc(Cl)c1-c1cc(C(=O)N[C@H](CN)Cc2ccc(F)c(F)c2)oc1Cl returns the recorded outcome of this test. active

What outcome does the record of this test show for COC(=O)[C@H](Cc1ccc(O)cc1)NC(=O)[C@@H](OC)[C@@H]1Cc2cc3cc(OC4CC(OC5CC(O)C(O)C(C)O5)C(O)C(C)O4)c(C)c(O)c3c(O)c2C(=O)[C@H]1OC1CC(OC2CC(OC3CC(C)(O)C(O)C(C)O3)C(O)C(C)O2)C(O)C(C)O1 (stereo not given in full) ? active

For this compound, state the assay outcome: Cc1ccc(NC(=O)Nc2ccc(Nc3ncnc4sc5c(c34)CCOC5)cc2)cc1Cl inactive

What was the test verdict on COc1cc(OC)c(/C=C/S(=O)(=O)Cc2ccc(OC)c(NCC(=O)O)c2)c(OC)c1 ? inactive

Others:
Could you kindly confirm the outcome this assay logged for O=C(NCCO)Nc1ccc(-c2nc(N3CCOCC3)c3cccn3n2)cc1 ? inactive

Recorded test call requested for c1ccc2c(c1)CCN(NCCN1CCCC1)C2 inactive

In this assay, the call recorded for NC(=O)c1n[nH]n2c1nc(=O)c1c3c(sc12)CCCC3 was what? inactive

Hi, do you know how CC(C)(O)CC(=O)NCCn1ccc2ncnc(Nc3ccc(Oc4cccc(C(F)(F)F)c4)c(Cl)c3)c21 came out in this test? inactive

Test call for this compound, please: CNc1ncc2cc(-c3cc(NC(=O)NCCC(C)(C)C)c(F)cc3C)c(C)nc2n1 inactive

* * *

Test system: HCT-116 colon
Experiment: NCI-60 one-dose screen, 48 h
Conditions: 10 µM unless noted
Compounds without any hit were thinned out: in the full panel of roughly 83,000, 20% have a hit. Calls of active or inactive are those of the source. The calls were made as follows: active = growth percent below 10; inactive = the rest.
One label from this list, please: true (1) for active, false (0) for inactive

Test call, this molecule: COc1cc(OC)c(/C=C/S(=O)(=O)Cc2ccc(OC)c(NCC(=O)O)c2)c(OC)c1 true (1)

Which outcome was assigned to CCN(CC)CCOc1ccc(/C(=C(\C)c2ccc(Cl)cc2)c2ccc(Cl)cc2)cc1 in this test? false (0)

* * *

Tested on: SW-620 colon
Assay: NCI-60 one-dose screen, 48 h
Conditions: 10 µM unless noted
Experimental: Growth inhibition of the SW-620 human tumor cell line is measured as a screen for anti-cancer activity. Cells are grown in 96 well plates and exposed to the test compound for 48 hours. Compounds are tested at a single concentration, which is 10^-5 M for most compounds. The reported endpoint is percent growth (GI% or GIPRCNT), where numbers from 0 - 100% represent growth inhibition, and numbers from -100% - 0 represent cell death. For example, a value of 40 represents 60% growth inhibition. […]
The panel holds about 83,000 compounds, 20% with a hit somewhere; the sample as a whole holds those more often. Active and inactive are the calls of the source. How the source made its calls: active means growth percent below 10; inactive means the rest.
The reply should name one outcome from active, inactive

The examples below pair each entry with its known result.
How did this test come out for COc1ccc(-c2ccc3ncc4c(c3c2)n(-c2ccc(N3CCNCC3)c(C(F)(F)F)c2)c(=O)n4C)cn1 ? active

Just curious, what result did COC(=O)C1=C(C(=O)OC)C23C=C(C)C1C2=C(C)C1(CC1)[C@@](C)(O)C3=O (some centres not stated) get here? inactive

Please share the test call associated with Cc1cc(Nc2nc(N[C@@H](C)c3ncc(F)cn3)ncc2Cl)n[nH]1 . inactive

Recorded test call requested for Cc1cnc(Nc2ccc(OCCN3CCCC3)cc2)nc1Nc1cccc(S(=O)(=O)NC(C)(C)C)c1 active

Which outcome was entered for the compound Cc1cc(N(CCNc2ccnc3cc(Cl)ccc23)Cc2cccs2)nc(Cl)n1 in this test? active

Just curious, what result did COC(=O)Nc1nc2ccc(C(=O)c3ccc(N(C)C4COC4)cc3)cc2[nH]1 get here? inactive

Which outcome was entered for the compound COC(=O)N[C@@H](C)CNc1nccc(-c2cn(C(C)C)nc2-c2cc(Cl)cc(NS(C)(=O)=O)c2F)n1 in this test? inactive

Given Nc1nc(N)c2cc(CNc3ccc(C(=O)NC(CC(=O)O)C(=O)O)cc3)ccc2n1 (configuration not stated) , state the outcome it received in this test. inactive

Test call, this compound: COc1cc2c(cc1OCCCCN1CCN(CC(=O)Nc3ccc(Cl)cc3C(=O)c3ccccc3Cl)CC1)N=CC1CCCN1C2=O (configuration not stated) active

# fetch the recorded call for CC(C)[C@@H]1CC[C@@H]2[C@@H]1[C@H](OC(=O)/C=C/c1ccccc1)[C@]1(C(C)C)C[C@@H](OC(=O)CO)[C@@]2(C)O1 here inactive

Others:
Please let me know the test result on file for Cc1cc2c(-c3nc4ccccn4c3NC34CC5CC(CC(C5)C3)C4)c(O)c(O)cc2c(O)c1-c1c(C)cc2c(-c3nc4ccccn4c3NC34CC5CC(CC(C5)C3)C4)c(O)c(O)cc2c1O . inactive

Per the records of this test, what outcome belongs to CC(C)(C)c1cnc(CSc2cnc(NC(=O)C3CCNCC3)s2)o1 ? active

Entry CC(=O)c1cnc2ccc(-c3cc(Cl)c(O)c(Cl)c3)nc2c1NC1CCC(CN(C)C)CC1 (configuration not stated) : call = ? active

Called result for Cc1cc2c(-c3nc4ccccn4c3Nc3cccc4ccccc34)c(O)c(O)cc2c(O)c1-c1c(C)cc2c(-c3nc4ccccn4c3Nc3cccc4ccccc34)c(O)c(O)cc2c1O inactive

Can you look up the reported call for CCOC(=O)C1=C(C)N=C2Sc3cccc(OC)c3N2[C@H]1c1ccccn1 for me? inactive

Just curious, what result did COc1cc2ncnc(Nc3ccc(O)cc3)c2cc1OC get here? inactive

Hi, sorry to bother you, what did the test record for Cn1cc(-c2ccc(F)c(C(F)(F)F)c2)nc1C1CCN(c2ncnc3[nH]ncc23)CC1 ? inactive

* * *

Tested on: IGROV1 ovarian
Assay: NCI-60 one-dose screen, 48 h (100 = growth as untreated, 0 = no growth, -100 = all killed)
Conditions: 10 µM unless noted
Compounds without any hit were thinned out: in the full panel of roughly 83,000, 20% have a hit. Active and inactive are the calls of the source. Rule for the calls: active = growth percent below 10; inactive = the rest.
Reported endpoint: growth

Some compounds with known growth results, for comparison:
Given the compound CCCC(=O)OCC1OC(n2cnc3c(=S)nc(N)[nH]c32)C(OC(=O)CCC)C1OC(=O)CCC (centres undefined) and test system IGROV1 ovarian, the measured growth is 51% (inactive)

CCN1CCN(c2nc(C)cc(N(CCCNc3ccnc4cc(Cl)ccc34)Cc3ccc4c(c3)OCO4)n2)CC1 on IGROV1 ovarian gives growth = 0.209% (active)

Measured growth for this entry CN[C@@H]1C[C@H]2O[C@@](C)([C@@H]1OC)n1c3ccccc3c3c4c(c5c6ccccc6n2c5c31)C(=O)N[C@H]4O on IGROV1 ovarian: 0.929% (active)

Fill in: IGROV1 ovarian growth for COc1ccc(Nc2ncccc2NC(=O)c2cn(Cc3cccc(Oc4ccccc4)c3)nn2)cc1 = 98.8% (inactive)

# lookup: O=C(Cc1ccc(-c2ccc(OCCN3CCOCC3)cc2)cn1)NCc1ccccc1 on IGROV1 ovarian, growth = 15.5% (inactive)

Note to self: growth of O=c1[nH]c([C@@H]2CCCN2)nc2c1oc1ccc(Cl)cc12 with IGROV1 ovarian was 81.3% (inactive)

Please look at the items below and tell me growth for each one, in order.
1. COc1cc2c(Nc3ccc(Br)cc3F)ncnc2cc1OCC1CCN(C)CC1
2. O=C(Cc1ccc(/C=C/C(=O)c2ncc[nH]2)cc1)Nc1ccc(S(F)(F)(F)(F)F)cc1
3. CCCCCCCC12Cc3ccccc3C1=Nc1c(c3ccccc3n1C)C2=O (centres undefined)
4. CC(C)NC[C@@H](C(=O)N1CCN(c2ncnc3c2[C@H](C)C[C@H]3O)CC1)c1ccc(Cl)cc1
5. Cc1cnc(NC(=O)Nc2cc(Br)c(C)cc2OC[C@@H]2CNCCO2)cn1
6. Cc1cc2c(F)c(Oc3ncnn4cc(OC[C@@H](C)OC(=O)[C@H](C)N)c(C)c34)ccc2[nH]1

["-21.9% (active)", "52.8% (inactive)", "69.5% (inactive)", "0.674% (active)", "30.5% (inactive)", "20.8% (inactive)"]

Reference source for all entries: PubChem BioAssay (NCI)
